The values you see were collected from patent US4661505A.

Exercise: for every item that follows, state its recorded inhibition at 3 µM.
target: LTD4 evoked ileal contractions (Cavia porcellus, UniProt Q2NNR5); construct: A section of terminal ileum was removed, the lumen cleaned, and the tissue divided into 2.5 cm. segments; from tissue; host or cells: terminal ileum of male Hartley guinea pigs; assay: Antagonism of LTD4-evoked contraction of isolated guinea pig ileum (single concentration); type: cell-based; settings: 3 × 10^-6 M, pure LTD4, 5 minute exposure, read-out: Percent Inhibition of LTD4 evoked ileal contractions
Sequence (Q2NNR5 whole entry): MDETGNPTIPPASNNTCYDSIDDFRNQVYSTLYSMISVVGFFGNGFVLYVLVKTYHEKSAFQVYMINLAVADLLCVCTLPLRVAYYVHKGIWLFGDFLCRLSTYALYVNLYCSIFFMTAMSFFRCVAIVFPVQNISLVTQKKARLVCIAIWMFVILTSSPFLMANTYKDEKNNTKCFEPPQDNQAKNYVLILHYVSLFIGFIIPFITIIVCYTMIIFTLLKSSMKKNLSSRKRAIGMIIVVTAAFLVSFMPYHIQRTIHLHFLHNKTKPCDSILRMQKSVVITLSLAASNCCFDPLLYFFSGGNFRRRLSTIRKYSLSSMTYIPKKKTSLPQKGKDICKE
Structures can show the parent of a compound that is named as a salt.
Numbers only, in %.

Reference set, count: 3
{"columns": ["COMPOUND", "EXPERIMENTAL TARGET", "RESULT UNIT", "EXPERIMENTAL RESULT"],
 "data": [
  ["CCCc1c(OCCCSC(=N)N)ccc(C(C)=O)c1O [Example 60, hydrobromide]", "LTD4 evoked ileal contractions (Cavia porcellus, UniProt Q2NNR5)", "%", 55],
  ["CCCc1c(OCCCCC(C)(C)C(=O)OC)ccc(C(C)=O)c1O", "LTD4 evoked ileal contractions (Cavia porcellus, UniProt Q2NNR5)", "%", 55],
  ["CCCc1c(OCCCCCCO)ccc(C(C)=O)c1O", "LTD4 evoked ileal contractions (Cavia porcellus, UniProt Q2NNR5)", "%", 46]
]}

Below are 2 compounds. Give each one its inhibition at 3 µM.
1. CCCc1c(OCCCCC(N)=O)ccc(C(C)=O)c1O
2. CCCc1c(OCCCCCCN2CCN(C)CC2)ccc(C(C)=O)c1O [Example 37, dihydrochloride]

Result block:
[59, 32]

###

Molecular target: LTD4 evoked ileal contractions (Cavia porcellus, UniProt Q2NNR5)
Construct: A section of terminal ileum was removed, the lumen cleaned, and the tissue divided into 2.5 cm. segments; from tissue; host or cells: terminal ileum of male Hartley guinea pigs
Experiment: Antagonism of LTD4-evoked contraction of isolated guinea pig ileum (single concentration)
Type: cell-based
Settings: 1 × 10^-5 M, pure LTD4, 5 minute exposure, read-out: Percent Inhibition of LTD4 evoked ileal contractions
Description: Male, Hartley guinea pigs weighing 200-450 grams were killed by decapitation. A section of terminal ileum was removed, the lumen cleaned, and the tissue divided into 2.5 cm. segments. […] Isometric measurements were made with a Grass FTO3C force-displacement transducer and recorded on a Grass polygraph as change in grams of force. […]
Counter-ions that a name gives are not always drawn.
Label Criterion met when inhibition at 10 µM is at or above 80%; otherwise label Criterion not met.

Completed entries (count: 5):
{"columns": ["COMPOUND", "CLASS LABEL"],
 "data": [
  ["CCCc1c(OCCCCCCN(C)C)ccc(C(C)=O)c1O [Example 38, hydrochloride]", "Criterion not met"],
  ["CCCc1c(OCCCCCCCCCC(=O)O)ccc(C(C)=O)c1O [Example 32]", "Criterion met"],
  ["CCCc1c(OCCCCCCCCSc2nn[nH]n2)ccc(C(C)=O)c1O [Example 73]", "Criterion met"],
  ["CCCC(CCCCC(=O)O)Oc1ccc(C(C)=O)c(O)c1 (stereo not shown) [Example 49]", "Criterion not met"],
  ["CCCc1c(OC(CCC)CCCCC(=O)O)ccc(C(C)=O)c1O (stereo not shown) [Example 48]", "Criterion not met"]
]}

Query block: Could you verify whether the entry CCCc1c(OCCCCC(C)(C)C(=O)O)ccc(C(C)=O)c1O [Example 45] shows inhibition at 10 µM of no less than 80%?
Result block: Criterion met

Query block: Could you verify whether the entry CCCc1c(OCCCCCCCCC(=O)O)ccc(C(C)=O)c1O [Example 31] shows inhibition at 10 µM of no less than 80%?
Result block: Criterion met

Query block: Could you verify whether the entry CCCc1c(OCCCCCCCCCCC(=O)O)ccc(C(C)=O)c1O [Example 33] shows inhibition at 10 µM of no less than 80%?
Result block: Criterion met

Query block: Could you verify whether the entry CCCc1c(OC(CCCCC(=O)O)c2ccccc2)ccc(C(C)=O)c1O (stereo not shown) [Example 19] shows inhibition at 10 µM of no less than 80%?
Result block: Criterion not met

Query block: Could you verify whether the entry CCCc1c(OCCCCCCC(=O)O)ccc(C(C)=O)c1O [Example 29] shows inhibition at 10 µM of no less than 80%?
Result block: Criterion met

Query block: Could you verify whether the entry CCCc1c(OC(CCCCC(=O)O)c2ccc(Cc3ccccc3)cc2)ccc(C(C)=O)c1O (stereo not shown) [Example 15] shows inhibition at 10 µM of no less than 80%?
Result block: Criterion not met

Query block: Could you verify whether the entry CCCc1c(OCCCCCCSc2nn[nH]n2)ccc(C(C)=O)c1O [Example 71] shows inhibition at 10 µM of no less than 80%?
Result block: Criterion met

Query block: Could you verify whether the entry COC(=O)C(C)(C)CCCCOc1ccc(C(C)=O)c(O)c1 [Example 46] shows inhibition at 10 µM of no less than 80%?
Result block: Criterion not met

Query block: Could you verify whether the entry CC(=O)c1ccc(OCCCCC(C)(C)C(=O)O)cc1O [Example 47] shows inhibition at 10 µM of no less than 80%?
Result block: Criterion not met

Query block: Could you verify whether the entry CCCc1c(OCCCCCSc2nn[nH]n2)ccc(C(C)=O)c1O [Example 68] shows inhibition at 10 µM of no less than 80%?
Result block: Criterion met

Query block: Could you verify whether the entry CC(=O)c1ccc(OC(CCCCC(=O)O)c2ccc(Cc3ccccc3)cc2)cc1O (stereo not shown) [Example 16] shows inhibition at 10 µM of no less than 80%?
Result block: Criterion met
